# protocol conditions: in methyl acetate, 323.15 K
readout type: solubility (mole fraction)

Please give the measured solubility (mole fraction) for this molecule: `O=C(N[C@H](Cc1ccccc1)C(=O)O)OCC1c2ccccc2-c2ccccc21` 0.0105

----------
# protocol conditions: in n-butyl acetate, 318.15 K
readout type: solubility (mole fraction)
Numbers only.

Consider the compound `O=C(N[C@H](Cc1ccccc1)C(=O)O)OCC1c2ccccc2-c2ccccc21` and give its measured solubility (mole fraction). 0.0046

----------
# protocol conditions: in ethanol, 303.15 K
readout type: solubility (mole fraction)
Answers are plain numbers.

// returns reported solubility (mole fraction) for input `O=C(N[C@H](Cc1ccccc1)C(=O)O)OCC1c2ccccc2-c2ccccc21` 0.0024
